target-system: T1, human DLL3 (UniProt Q9NYJ7 27-492)
T1 chain: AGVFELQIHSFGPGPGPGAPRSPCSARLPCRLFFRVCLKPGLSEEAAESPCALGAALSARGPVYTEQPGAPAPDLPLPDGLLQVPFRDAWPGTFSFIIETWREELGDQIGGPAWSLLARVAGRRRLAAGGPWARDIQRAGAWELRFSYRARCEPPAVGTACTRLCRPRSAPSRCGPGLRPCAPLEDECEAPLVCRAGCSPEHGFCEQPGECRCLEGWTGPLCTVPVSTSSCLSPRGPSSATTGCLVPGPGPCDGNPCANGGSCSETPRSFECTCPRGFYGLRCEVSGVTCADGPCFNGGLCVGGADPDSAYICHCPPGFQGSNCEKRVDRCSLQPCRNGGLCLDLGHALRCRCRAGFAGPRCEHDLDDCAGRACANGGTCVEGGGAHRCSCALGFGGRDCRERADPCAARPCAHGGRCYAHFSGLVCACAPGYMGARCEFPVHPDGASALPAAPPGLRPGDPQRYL
assay-explanation: SPR (Biacore)
endpoint-name: pKd
Please report pKd as the negative decimal logarithm of the molar concentration, giving only the number.

binder | pKd
SC16.13 (antibody, V domains shown) VH: QVTLKESGPGILQPSQTLSLTCSFSGFSLSTSGMGVGWIRQPSGKGLEWLAHIWWDDVKRYNPALKSRLTISKDTSSSQVFLKIASVDTADTATYYCARIVSFDNDVVSAMDYWGQGTSVTVSS VL: QIVLTQSPALVSASPGEKVTMTCSASSSVSYMYWYQQKPRSSPKPWIYLTSNLASGVPARFSGSGSGTSYSLTISSMEAEDAATYYCQQWRSNPFTFGSGTKLEIK | 8.70

Next binder, pKd to be filled in.
Q: Which pKd reading was recorded for the binder SC16.25 (antibody, V domains shown, murine mAb; V regions only) VH: QVTLKESGPGILQPSQTLSLTCSFSGFSLSTSGMGVGWIRQPSGEGLEWLTDIWWDDNKYYNPSLKSRLTISKDTSSNQVFLNITSVDTADTATYYCARRVNYYYDPYYAMDYWGQGTSVTVSS VL: QIVLTQSPAIMSASPGEKVTMTCSASSSVSYMHWYQQKSGTSPKRWIYDSSKLASGVPARFSGSGSGTSYSLTISSMEAEDAATYYCQQWSSNPLTFGAGTKLELK ?
Result: 9.70

Attribution: patent US20160015828A1
